Test system: Galectin-3 (Homo sapiens, UniProt P17931)
Sequence (P17931 whole entry): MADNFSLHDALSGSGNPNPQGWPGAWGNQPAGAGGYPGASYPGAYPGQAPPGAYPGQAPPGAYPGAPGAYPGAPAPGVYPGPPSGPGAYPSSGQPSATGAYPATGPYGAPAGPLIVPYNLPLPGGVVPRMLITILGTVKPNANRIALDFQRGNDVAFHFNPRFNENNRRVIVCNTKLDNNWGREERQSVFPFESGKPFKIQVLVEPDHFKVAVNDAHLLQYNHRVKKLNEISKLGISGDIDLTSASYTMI
Assay protocol: Binding affinity to recombinant human galectin 3 assessed as dissociation constant by SPR assay
Measurement label: Kd
Kindly report the value followed by its unit.

Write down measured Kd (Galectin-3 (Homo sapiens, UniProt P17931)) for this compound. Cn1cc(-c2ccncc2)c(-c2ccc(OCc3ccc4ccccc4n3)cc2)n1
0.29 µM
